Where do the numbers come from? From patent US20250027068.

- TARGET UNDER TEST: pooled human IgG (human IgG1, 2, 3 and 4)
MEASURED METRIC: Enzyme Activity Endpoint Assay: IgG (ng/µL)

protein="PRT-582 (protein) MANQEIRYSKAKPKVITSVWTKGVTPPTQFTKNEDVFHAPYLANQGWYDITKTFNGKDDLLCGAATAGNMLHWWFDQNKEQIERYLKKHPEKQKINFNGEQMFDVKEAIDTKDSQTNSKLFNYFKDKAFPYLSTKHLGVFPDHVIDMFINGYRLSLTNHGPTPVKEQNKDPRGGIFDDVFTRGDQSKLLTSRHDFKEKTLKEISDLIKQELKEGKALGLSHTYANVRINHVINLWGADFDAEGNLVAIYVTDSDSNASIGMKKYYVGVNSAGKVAISAKEIEDDNIGAQVLGLFTLSTGKDIWEKTNLEHHHHHH" quantitative_result=329
protein="PRT-264 (protein) MVTSVWTKGVTPPTNFTYGEDVLHAPYVANQGWYDITKLFNGKDNLLCGAATAGNMLHWWFDQNKEQIENYLKKHPEKQKINFNGEQLFDVKEAIDTKDSQLDSKLFDYFKEKAFPYLSTKHLGVFPDHVIDMFINGYRLSLTNHGPTPVKRGSKDKRGGIFDAVFTRGVQSKLLTNRHDFKEKTLKEISDLIKQELTEGKALGISHTYANVRINHVINLWGADFDAEGNLEAIYVTDSDTNPSIGMKKYFVGVNSSGKVAISAKEIEEDNIGAQVLGLFTLSTGQDIWNQTN" quantitative_result=97
protein="PRT-587 (protein) MANQEIRYSEETPKTITSVWTKGVTPPTDFIYNEDVLHAPYIANQGWYDITKTFNGKDDLLCGAATAGNMLHWWFDQNKEQIERYLKKHPEKQKINFNGEQMFDVKEAIDTKDSQTDSKLFEYFKDKAFPYLSTKHLGVFPDHVIDMFINGYRLSLTNHGPTPVKRGTKDPRGGIFDAVFTRGDQSKLLTSRHDFKEKTLNEISDLIKQELTEGKALGLSHTYANVRINHVINLWGADFNSEGNLEAIYVTDSDSNASIGMKKYYVGVNSAGKVAISAKEIEGDNIGAQVLGLFTLSTGKDIWEQTNLEHHHHHH" quantitative_result=0
protein="PRT-270 (protein) MVTSVWTKGVTPPTDFIYGEDVLHAPYKAGQGWYDITKLFNGKDDLLCGAATAGNMLHWWFDQNKEQIENYLKKHPEKQKINFNGEQMFDVKEAIDTKDSQLDSKLFEYFLEKAFPNLSTKHLGVFPDHVIDMFINGYRLSLLNHGPTPVKRGSKDPRGGIFDAVFTRGDQSKLLTNRHDLKNKTLKEISDLIKQELTEGKALGISHTYANGRINHVINLWGADFDAEGNLEAIAVTDSDSNASIGMKKYFVGVNSSGKVAISAKEIEEDNIGAQVLGLFTLSTGQDIWNQTN" quantitative_result=100
protein="PRT-422 (protein) MTITSVWTKGVTPPTPEDFRYNNEDVLHAPYVANQGWYDITKTFDGKDNLLCGAATAGNMLHWWFDQNKEEIERYLKKHPEKQKIIFNNQELFDVKAAIDTKDSQTNSKLFNYFRDKAFPNLSARQLGVMPDLVLDMFINGYYLNLGKTQSTDVNRPYQDKDKRGGIFDAVFTRGDQTTLLTARHDLKNKGLNEISDLIKQELTEGKALALSHTYANVRINHVINLWGADFDAEGNLIAIYVTDSDANPSIGMKKYFVGVNANGKVAISAKKIEGDNIGAQVLGLFTLSTGQDIWQKLS" quantitative_result=69
protein="PRT-272 (protein) MVTSVWTKGVTPPTDFIYGEDVLHAPYKAGQGWYDITKLFNGKDDLLCGAATAGNMLHWWFDQNKEQIENYLKKHPEKQKINFNGEQMFDVKEAIDTKDSQLDSKLFEYFLEKAFPYLSTKHLGVFPDHVIDMFINGYRLSLTNHGPTPVKRGSKDPRGGIFDAVFTRGDQSKLLTNRHDLKNKTLKEISDLIKQELTEGKALGISHTYANVRINHVINLWGADFDAEGNLEAIAVTDSDSNASIGMKKYFVGVNSSGKVAISAKEIEEDNIGAQVLGLFTLSTGQDIWNQTN" quantitative_result=0
protein="PRT-479 (protein) MITSVWTKGVTPPTDFIYGEDVLHAPYKAGQGWYDITKAFDGGDDLLCGAATAGNMLHWWFDQNKEQIENYLKKHPEKQKINFNGEQMFDVKEAIDTKDSQTNSELFNYFKEKAFPYLSTKHLGVFPDHVIDMFINGYRLSLTNHGPTPVKRQEKDPRGGIFDAVFGRGDQTKLLTNRHDLKNKTLNEISQLIKQELTEGKALGISHTYANVRINHVINLWGADFDAEGNLEAIYVTDSDSNASIGMKKYFVGVNSNGKVAISAKEIEEDNIGAQVLGLFTLSTGQKIWNKTNLEHHHHHH" quantitative_result=0
protein="PRT-400 (protein) MVTSVWTKGVTPPADFTQGEDVFHAPYDANQGWYDITKTFNGKDDLLCGAATAGNMLHWWFDQNKEYIEAYLKKHPEKQKIMFGDQELLDVRKAINTKGSQKNSELFNYFRDKAFPNLSARRLGVMPDLVLDMFINGYYLNVTKTQTTDVNRTYQEKDKRGGIFDAVFTRGDQSKLLTSRHDFKEKGLKEISDLIKQELTEGKALGLSHTYANVRINHVINLWGADFDSDGNLKAIYVTDSDSNASIGMKKYFVGVNSAGKVAISAKEIKEDNIGAQVLGLFTLSTGQDIWNQTN" quantitative_result=176
